# PROCEDURE_SUMMARY: Shake-flask partition coefficient / logD
# Type: physicochemical
# RUN_PARAMETERS: n-octanol/PBS buffer, pH 0.91
# Description: Shake-flask partition coefficient measurement was done according to OECD guideline 107 (27. 7. 1995) and EPA OPPTS 830.7550 guideline (1996). […] Each solvent ratio was done in duplicates. The Eppendorf tubes were thoroughly shaken to ensure partition and centrifuged (5000 × g, 10 min) to separate the phases. Water phase (carefully sampled using needle and syringe) was transferred to HPLC vials directly, whereas n-octanol phases were diluted with MeCN (10–50×) prior to analysis. […]
ATTRIBUTE_MEASURED: logD
Number only, no unit.

**Q:** Look up logD: CCN(CC)C(=O)n1cnc(C2(CC)Cc3ccccc3C2)c1 [Compound 8]
**A:** 0.3

* * *

# TARGET_SYSTEM: hAChE (Homo sapiens)
# Sequence (P22303 32-614): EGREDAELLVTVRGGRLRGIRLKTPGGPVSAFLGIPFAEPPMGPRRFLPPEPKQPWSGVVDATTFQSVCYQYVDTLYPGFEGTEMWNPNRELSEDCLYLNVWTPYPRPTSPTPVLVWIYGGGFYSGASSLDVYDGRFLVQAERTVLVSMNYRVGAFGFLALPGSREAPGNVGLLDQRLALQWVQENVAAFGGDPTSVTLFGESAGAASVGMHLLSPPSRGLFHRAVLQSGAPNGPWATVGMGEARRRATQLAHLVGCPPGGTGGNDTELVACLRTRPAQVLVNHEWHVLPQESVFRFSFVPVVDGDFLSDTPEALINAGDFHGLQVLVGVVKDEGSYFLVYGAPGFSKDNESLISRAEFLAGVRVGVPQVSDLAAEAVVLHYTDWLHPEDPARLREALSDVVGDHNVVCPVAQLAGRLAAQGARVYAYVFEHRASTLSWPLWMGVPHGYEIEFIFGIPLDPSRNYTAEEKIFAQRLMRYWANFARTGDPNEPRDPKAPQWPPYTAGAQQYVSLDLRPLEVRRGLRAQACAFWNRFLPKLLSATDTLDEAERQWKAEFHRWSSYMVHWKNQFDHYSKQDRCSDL
# PROCEDURE_SUMMARY: ChE IC50 determination, method of Ellman, hAChE
# Type: biochemical
# RUN_PARAMETERS: after 5 min preincubation; read-out: hAChE IC50±SD
pIC50 values, listed per item
Kindly note that pIC50 refers to -log10 of the concentration in mol/L and answer with the value alone.

Known pIC50 results, listed for orientation:
- CCC1(c2cn(C(=O)N(C)C)c[n+]2C)Cc2ccccc2C1.O=S(=O)([O-])C(F)(F)F: 5.50
- CCC1(c2cn(C(=O)N3CCCCC3)cn2)Cc2ccccc2C1: 5.12
- CCC1(c2cnn(C(=O)N(C)C)n2)Cc2ccccc2C1: 6.63
- CCC1(c2ncn(C(=O)N(C)C)n2)Cc2ccccc2C1: 5.53

# context switch: different compound, same pIC50
**Q:** Look up pIC50: `CCC1(c2cn(C(=O)N(C)C)cn2)Cc2ccccc2C1`
**A:** 4.48

* * *

# PROCEDURE_SUMMARY: Shake-flask partition coefficient / logD
# Format: physicochemical
# RUN_PARAMETERS: n-octanol/PBS buffer, pH 3.07
ATTRIBUTE_MEASURED: logD
Number only, no unit.

**Q:** Look up logD: `CCN(CC)C(=O)n1cnc(C2(CC)Cc3ccccc3C2)c1`
**A:** 2.17

* * *

# PROCEDURE_SUMMARY: Thermodynamic solubility
# Format: physicochemical
# RUN_PARAMETERS: pH 2 solution, pH 2, aqueous buffer, thermodynamic from solid
ATTRIBUTE_MEASURED: solubility at 24 h (µg/mL)
Number in µg/mL, nothing else.

**Q:** Look up solubility at 24 h: `CCN(CC)C(=O)n1cnc(C2(CC)Cc3ccccc3C2)c1`
**A:** 2420

* * *

# PROCEDURE_SUMMARY: Thermodynamic solubility
# Assay type: physicochemical
# RUN_PARAMETERS: water, thermodynamic from solid
# Method: The supernatants were diluted 1:5 with 50% MeCN or used directly for UPLC analysis (calibration curve was constructed from 0.5–100 mg/L standard solutions of compound 8).
ATTRIBUTE_MEASURED: solubility at 24 h
Express your answer as a number followed by its unit.

**Q:** Look up solubility at 24 h: `CCN(CC)C(=O)n1cnc(C2(CC)Cc3ccccc3C2)c1`
**A:** 115 µg/mL

* * *

// pIC50 collected for hBChE (Homo sapiens, UniProt P06276)
Kindly note that pIC50 refers to -log10 of the concentration in mol/L and answer with the value alone.

Known pIC50 results, listed for orientation:
* CCC1(c2ncn(C(=O)N(C)C)n2)Cc2ccccc2C1 | 8.30
* CCC1(c2cn(C(=O)N3CCCCC3)cn2)Cc2ccccc2C1 | 8.60

# context switch: different compound, same pIC50
**Q:** Look up pIC50: `CCC1(c2cn(C(=O)N(C)C)c[n+]2C)Cc2ccccc2C1.O=S(=O)([O-])C(F)(F)F`
**A:** 8.08
